Origin of values: patent US12064426B2

Parameter: pIC50. Scope: all listed entries.
MEASUREMENT TARGET: Recombinant ROCK2 (amino acids 5-554) (Homo sapiens, UniProt O75116)
Construct: ROCK2 (amino acids 5-554); by word order, ROCK2 from SignalChem
Sequence (O75116 5-554): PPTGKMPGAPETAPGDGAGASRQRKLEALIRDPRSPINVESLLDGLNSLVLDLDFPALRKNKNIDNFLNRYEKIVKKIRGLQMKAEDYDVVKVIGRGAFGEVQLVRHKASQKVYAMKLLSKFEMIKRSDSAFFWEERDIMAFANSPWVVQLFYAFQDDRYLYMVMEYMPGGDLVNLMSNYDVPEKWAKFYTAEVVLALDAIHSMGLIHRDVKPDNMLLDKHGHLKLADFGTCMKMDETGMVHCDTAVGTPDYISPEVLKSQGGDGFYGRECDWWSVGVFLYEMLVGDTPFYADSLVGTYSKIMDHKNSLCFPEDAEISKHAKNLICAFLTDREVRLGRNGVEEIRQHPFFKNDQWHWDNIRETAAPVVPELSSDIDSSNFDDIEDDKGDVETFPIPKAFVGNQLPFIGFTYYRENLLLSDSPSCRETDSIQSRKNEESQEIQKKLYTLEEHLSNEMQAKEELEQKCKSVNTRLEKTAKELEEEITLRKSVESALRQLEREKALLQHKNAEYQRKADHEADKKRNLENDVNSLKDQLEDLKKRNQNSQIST
TEST METHOD NOTES: ROCK inhibition assay, LANCE Ultra TR-FRET kinase assay (ROCK2)
Assay type: biochemical
PROTOCOL CONDITIONS: 4 μM ATP, 50 nM ULight-CREBtide substrate
pIC50: −log10 of the molar value.

O=C(NCC1CCOCC1)c1cccc(Cn2cnc3cc(-c4cn[nH]c4C(F)F)ccc3c2=O)c1 [Compound 396]
> 8.00

Exercise: Would you please give the reported pIC50 of Cn1nccc1-c1ccc2c(=O)n(Cc3cccc(C(=O)NCCO)c3)cnc2c1 [Compound 432] with Recombinant ROCK2 (amino acids 5-554) (Homo sapiens, UniProt O75116)?
Key: 7.00 to 8.00

Exercise: Give measured pIC50 for Nc1cc(-c2ccc3c(=O)n(Cc4cc(F)cc(C(=O)NC5COC5)c4)ccc3c2)ccn1 [Compound 202] (Recombinant ROCK2 (amino acids 5-554) (Homo sapiens, UniProt O75116)).
Key: 6.30 to 7.00

Exercise: Tell me its pIC50 on Recombinant ROCK2 (amino acids 5-554) (Homo sapiens, UniProt O75116): C[C@H](c1cccc(C(=O)NCc2ccncc2)c1)n1cnc2cc(-c3cn[nH]c3C(F)(F)F)ccc2c1=O [Compound 447]
Key: > 8.00

Exercise: For Recombinant ROCK2 (amino acids 5-554) (Homo sapiens, UniProt O75116), give the measured pIC50 of the entry Cc1nocc1-c1ccc2c(=O)n(Cc3cc(F)cc(C(=O)Nc4ccc5c(c4)CNCC5)c3)ccc2c1 [Compound 160]
Key: > 8.00

----------
MEASUREMENT TARGET: Recombinant ROCK1 (amino acids 1-477) (Homo sapiens)
Construct: Recombinant ROCK1 (amino acids 1-477); by word order, ROCK1 from Carna Biosciences
Sequence (Q13464 1-477): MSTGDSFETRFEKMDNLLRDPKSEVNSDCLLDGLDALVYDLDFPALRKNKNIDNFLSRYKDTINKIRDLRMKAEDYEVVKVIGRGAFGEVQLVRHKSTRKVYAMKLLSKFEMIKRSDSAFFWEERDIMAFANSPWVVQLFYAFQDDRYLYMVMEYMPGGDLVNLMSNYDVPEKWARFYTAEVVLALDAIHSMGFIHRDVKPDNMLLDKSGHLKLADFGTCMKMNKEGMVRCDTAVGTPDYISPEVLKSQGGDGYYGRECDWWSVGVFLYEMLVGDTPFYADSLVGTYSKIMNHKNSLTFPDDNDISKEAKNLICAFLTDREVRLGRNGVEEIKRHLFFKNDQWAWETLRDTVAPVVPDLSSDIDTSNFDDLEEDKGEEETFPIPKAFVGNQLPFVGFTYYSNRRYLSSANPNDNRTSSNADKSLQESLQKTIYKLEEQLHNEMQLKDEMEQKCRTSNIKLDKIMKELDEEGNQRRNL
TEST METHOD NOTES: ROCK inhibition assay, LANCE Ultra TR-FRET kinase assay (ROCK1)
PROTOCOL CONDITIONS: 1 μM ATP, 50 nM ULight-CREBtide substrate
pIC50: −log10 of the molar value.
MEASUREMENT TYPE: pIC50

Recorded pIC50, per entry:
CC(O)c1cn(Cc2cccc(C(=O)NC3CC3)c2)c(=O)c2ccc(-c3c[nH]nc3C(F)(F)F)cc12 (stereo not shown)
6.30 to 7.00
Cn1nccc1-c1ccc2c(=O)n(Cc3cccc(C(=O)NCC4CCN(CC(F)F)CC4)c3)ccc2c1
7.00 to 7.96
NCC(c1cccc(C(N)=O)c1)n1cnc2cc(-c3ccnc(N)c3)ccc2c1=O (stereo not shown)
< 6.30

Exercise: Look up pIC50 of `CNC(=O)c1cccc(Cn2ccc3cc(-c4cn[nH]c4C(F)(F)F)ccc3c2=O)c1` and report it.
Key: 7.00 to 7.96

----------
Parameter: IC50. Scope: all listed entries.
MEASUREMENT TARGET: Recombinant ROCK2 (amino acids 5-554) (Homo sapiens)
Construct: ROCK2 (amino acids 5-554); by word order, ROCK2 from SignalChem
TEST METHOD NOTES: ROCK inhibition assay, LANCE Ultra TR-FRET kinase assay (ROCK2)
PROTOCOL CONDITIONS: 4 μM ATP, 50 nM ULight-CREBtide substrate

C[C@H](c1cccc(C(=O)NC2CCN(C)CC2)c1)n1cnc2cc(-c3cn[nH]c3Cl)ccc2c1=O [Compound 464]
< 0.01 µM
[2H]C([2H])([2H])NC(=O)c1cc(F)cc(Cn2cnc3cc(-c4conc4C)ccc3c2=O)c1 [Compound 423]
< 0.01 µM
O=C(NCc1ccc(F)nc1)c1cc(F)cc(Cn2ccc3cc(-c4c[nH]nc4C(F)(F)F)ccc3c2=O)c1 [Compound 129]
< 0.01 µM
CNC(=O)c1cncc(Cn2cnc3cc(-c4cn[nH]c4Cl)ccc3c2=O)c1 [Compound 403]
0.1 to 0.5 µM
COc1cccc([C@@H](CO)N2CNc3cc(-c4cn[nH]c4C(F)(F)F)ccc3C2=O)c1 [Compound 528]
0.1 to 0.5 µM
Cc1nocc1-c1ccc2c(=O)n(Cc3cccc(C(=O)Nc4nc5c(s4)CCN(C)C5)c3)ccc2c1 [Compound 94]
< 0.01 µM

Exercise: Supply measured IC50 of O=C(NCC1COC1)c1cc(F)cc(Cn2ccc3cc(-c4c[nH]nc4C(F)(F)F)ncc3c2=O)c1 [Compound 258] in your reply.
Key: < 0.01 µM

Exercise: Identify measured IC50 associated with COCCNC(=O)c1cccc(Cn2ccc3cc(-c4ccnn4C)ccc3c2=O)c1 [Compound 120]
Key: 0.1 to 0.5 µM

Exercise: Kindly indicate its recorded IC50. Item: CNC(=O)c1cc(F)cc(Cn2ccc3cc(-c4c[nH]nc4Cl)ncc3c2=O)c1 [Compound 249]
Key: < 0.01 µM

Exercise: Retrieve IC50 measured for CNC(=O)c1cncc(Cn2ccc3cc(-c4conc4C)ccc3c2=O)c1 [Compound 312] and print it.
Key: 0.01 to 0.1 µM

Exercise: Return reported IC50. Input compound: NCc1ccccc1CNC(=O)c1cccc(Cn2ccc3cc(-c4ccnc(N)c4)ccc3c2=O)c1 [Compound 183]
Key: 0.01 to 0.1 µM

Exercise: Return IC50 for the following compound: CNC(=O)c1cc(F)cc(C(C)n2cnc3cc(-c4cn[nH]c4C(F)(F)F)ccc3c2=O)c1 (stereo not shown) [Compound 388]
Key: < 0.01 µM

Exercise: Output measured IC50 for this item: Cc1nocc1-c1ccc2c(=O)n(Cc3cc(F)cc(C(=O)N[C@H]4C[C@@H](O)C4)c3)ccc2c1 [Compound 137]
Key: 0.01 to 0.1 µM

Exercise: Identify IC50 associated with the compound Nc1cc(-c2ccc3c(=O)n(Cc4cccc(C(=O)Nc5ncc[nH]5)c4)ccc3c2)ccn1 [Compound 199]
Key: 0.1 to 0.5 µM

Exercise: Indicate its recorded IC50; the compound in question is [2H]C([2H])([2H])NC(=O)c1cccc(Cn2ccc3cc(-c4conc4C)ccc3c2=O)c1 [Compound 307]
Key: < 0.01 µM
